Tested on: E. coli TESEC Alr+ wild-type control
Assay: growth (OD600 after 10 h); higher = more growth (less inhibition)
Details: compound 0.1 mM; raw OD600 reference: median of DMSO wells 0.49, cell-free background 0.052
Structures can show the parent of a compound that is named as a salt.
Measured quantity: growth
Answer with a number only.

Example results:
>  <Compound>
CCCC1C(=O)N2C(N(C)C)=Nc3ccc(C)cc3N2C1=O (stereo not given)

>  <Quantitative readout>
0.483

$$$$
>  <Compound>
CN1C2CCCC1CC(NC(=O)c1nn(C)c3ccccc13)C2 (stereo not given)

>  <Quantitative readout>
0.549

$$$$
>  <Compound>
CNNCc1ccc(C(=O)NC(C)C)cc1 [Procarbazine hydrochloride]

>  <Quantitative readout>
0.454

$$$$
>  <Compound>
C=C[C@H]1CN2CC[C@H]1C[C@@H]2[C@@H](O)c1ccnc2ccc(OC)cc12 [Quinidine hydrochloride monohydrate]

>  <Quantitative readout>
0.483

$$$$

Now let's try a different one.
-- ask Name the recorded growth for `Cn1c(=O)c2c(ncn2C)n(C)c1=O` .
-- reply 0.617
